Measurement Target: T1, EcSufS, untagged (wild type) (Escherichia coli, UniProt P77444 1-406, PLP (pyridoxal 5'-phosphate) cofactor)
T1 construct: EcSufS, cysteine desulfurase SufS of Escherichia coli, UniProt P77444; Untagged version used for crystallography and with the EcSufE variants; In samples with cysteine the active site cysteine is thought to carry a persulfide; also called SufSA; SufSB
T1 sequence: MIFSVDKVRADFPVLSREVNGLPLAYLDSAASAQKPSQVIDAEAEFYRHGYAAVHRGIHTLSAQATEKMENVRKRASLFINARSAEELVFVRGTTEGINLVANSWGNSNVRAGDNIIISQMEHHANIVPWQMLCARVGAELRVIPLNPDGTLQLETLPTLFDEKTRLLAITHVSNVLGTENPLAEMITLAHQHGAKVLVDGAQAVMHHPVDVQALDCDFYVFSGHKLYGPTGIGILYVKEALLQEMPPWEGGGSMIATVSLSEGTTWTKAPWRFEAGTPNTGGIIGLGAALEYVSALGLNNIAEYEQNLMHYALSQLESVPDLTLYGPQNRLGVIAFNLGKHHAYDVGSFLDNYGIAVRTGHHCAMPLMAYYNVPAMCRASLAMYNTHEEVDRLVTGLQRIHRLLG
Method Summary: fluorescence polarisation; 100 nM BODIPY-FL-labeled EcSufE titrated with EcSufS; 50 mM Mops pH 8.0, 150 mM NaCl, 0.1 mg/ml bovine serum albumin, 25 °C, 30 min; presence of 500 μM cysteine; apparent KD
Reported Conditions: both partners purified
Label Y when Kd < 800 nM; otherwise N.

Please review the entries below; each comes with its answer.
>  <Binder>
BODIPY-FL-labeled R119A EcSufE in the C51A/E107C background (natural protein, Escherichia coli, BODIPY-FL maleimide label (labeling efficiency 60 to 80%), EcSufE of Escherichia coli, UniProt P76194, with C51A, E107C and R119A; also called R119A SufE; R119A EcSufE (in double mutant background); source: E. coli BL21(DE3)Δsuf, pET21, purified, labeled with BODIPY-FL maleimide) MALLPDKEKLLRNFLRCANWEEKYLYIIELGQRLPELRDEDRSPQNSIQGAQSQVWIVMRQNAQGIIELQGDSDAAIVKGLIAVVFILYDQMTPQDIVNFDVRPWFCKMALTQHLTPSASQGLEAMIRAIRAKAAALS

>  <Classification>
Y

$$$$
>  <Binder>
BODIPY-FL-labeled T116S EcSufE in the C51A/E107C background (natural protein, Escherichia coli, BODIPY-FL maleimide label (labeling efficiency 60 to 80%), EcSufE of Escherichia coli, UniProt P76194, with C51A, E107C and T116S; also called T116S SufE; source: E. coli BL21(DE3)Δsuf, pET21, purified, labeled with BODIPY-FL maleimide) MALLPDKEKLLRNFLRCANWEEKYLYIIELGQRLPELRDEDRSPQNSIQGAQSQVWIVMRQNAQGIIELQGDSDAAIVKGLIAVVFILYDQMTPQDIVNFDVRPWFCKMALTQHLSPSRSQGLEAMIRAIRAKAAALS

>  <Classification>
N

$$$$
>  <Binder>
BODIPY-FL-labeled R119K EcSufE in the C51A/E107C background (natural protein, Escherichia coli, BODIPY-FL maleimide label (labeling efficiency 60 to 80%), EcSufE of Escherichia coli, UniProt P76194, with C51A, E107C and R119K; also called R119K SufE; source: E. coli BL21(DE3)Δsuf, pET21, purified, labeled with BODIPY-FL maleimide) MALLPDKEKLLRNFLRCANWEEKYLYIIELGQRLPELRDEDRSPQNSIQGAQSQVWIVMRQNAQGIIELQGDSDAAIVKGLIAVVFILYDQMTPQDIVNFDVRPWFCKMALTQHLTPSKSQGLEAMIRAIRAKAAALS

>  <Classification>
N

$$$$
>  <Binder>
BODIPY-FL-labeled Q121A EcSufE in the C51A/E107C background (natural protein, Escherichia coli, BODIPY-FL maleimide label (labeling efficiency 60 to 80%), EcSufE of Escherichia coli, UniProt P76194, with C51A, E107C and Q121A; also called Q121A SufE; source: E. coli BL21(DE3)Δsuf, pET21, purified, labeled with BODIPY-FL maleimide) MALLPDKEKLLRNFLRCANWEEKYLYIIELGQRLPELRDEDRSPQNSIQGAQSQVWIVMRQNAQGIIELQGDSDAAIVKGLIAVVFILYDQMTPQDIVNFDVRPWFCKMALTQHLTPSRSAGLEAMIRAIRAKAAALS

>  <Classification>
N

$$$$

Below: the item to evaluate.
Query block: Is the reported Kd for BODIPY-FL-labeled Q121E EcSufE in the C51A/E107C background (natural protein, Escherichia coli, BODIPY-FL maleimide label (labeling efficiency 60 to 80%), EcSufE of Escherichia coli, UniProt P76194, with C51A, E107C and Q121E; also called Q121E SufE; source: E. coli BL21(DE3)Δsuf, pET21, purified, labeled with BODIPY-FL maleimide) MALLPDKEKLLRNFLRCANWEEKYLYIIELGQRLPELRDEDRSPQNSIQGAQSQVWIVMRQNAQGIIELQGDSDAAIVKGLIAVVFILYDQMTPQDIVNFDVRPWFCKMALTQHLTPSRSEGLEAMIRAIRAKAAALS strictly below 800 nM?
Result block: Y
